assay: 14-day oral gavage toxicokinetic study in rats; assay type: in vivo; settings: male, rat, plasma, po, 2 mg/kg, Compound 1 Plasma Concentration, rats, Male, Day 14, 2 h; daily oral 2 mg/kg (Group 7); individual animals

{"columns": ["COMPOUND", "concentration at 2 h (ng/mL)"],
 "data": [
  ["CN1CCN(c2ccc(Nc3ncc4cc5n(c4n3)C3(CCCCC3)CNC5=O)nc2)CC1 [Compound 1]", 84.3]
]}

----------
assay: 14-day oral gavage toxicokinetic study in rats; type: in vivo; conditions: female, rat, plasma, po, 15 mg/kg, Mean Compound 1 Plasma Concentration, rats, oral 15 mg/kg, Day 1, 8 h, Female

{"columns": ["COMPOUND", "concentration at 8 h / ng/mL"],
 "data": [
  ["CN1CCN(c2ccc(Nc3ncc4cc5n(c4n3)C3(CCCCC3)CNC5=O)nc2)CC1 [Compound 1]", 1440]
]}

----------
assay: Single escalating dose IV infusion pharmacokinetics in healthy volunteers (noncompartmental); assay type: in vivo, human; conditions: both, human, plasma, intravenous, […]^2, Cohort 6 + 7, […]^2, N = 18; Geo. Mean; read-out: tmax

{"columns": ["COMPOUND", "Tmax"],
 "data": [
  ["CN1CCN(c2ccc(Nc3ncc4cc5n(c4n3)C3(CCCCC3)CNC5=O)nc2)CC1 [Compound 1]", "22.2 min"]
]}

----------
test: 14-day oral gavage toxicokinetic study in rats; type: in vivo; conditions: female, rat, plasma, po, 30 mg/kg, Individual Compound 1 Plasma Concentration, rats, daily oral 30 mg/kg, Day 14, Female, 1 h
MEASURED ATTRIBUTE: concentration at 1 h

{"columns": ["TEST SMILES", "VALUE"],
 "data": [
  ["CN1CCN(c2ccc(Nc3ncc4cc5n(c4n3)C3(CCCCC3)CNC5=O)nc2)CC1", "2740 ng/mL"]
]}

----------
experiment: 14-day oral gavage toxicokinetic study in rats; assay type: in vivo; settings: male, rat, plasma, po, 15 mg/kg, Individual Compound 1 Plasma Concentration, rats, daily oral 15 mg/kg, Day 14, Male, 2 h

{"columns": ["TEST SMILES", "UNIT OF MEASUREMENT", "concentration at 2 h"],
 "data": [
  ["CN1CCN(c2ccc(Nc3ncc4cc5n(c4n3)C3(CCCCC3)CNC5=O)nc2)CC1", "ng/mL", 1350]
]}

----------
assay: 14-day oral gavage toxicokinetic study in rats; format: in vivo; conditions: male, rat, plasma, po, 30 mg/kg, Individual Compound 1 Plasma Concentration, rats, daily oral 30 mg/kg, Day 14, Male, 0.5 h

{"columns": ["TEST SMILES", "concentration at 0.5 h, ng/mL"],
 "data": [
  ["CN1CCN(c2ccc(Nc3ncc4cc5n(c4n3)C3(CCCCC3)CNC5=O)nc2)CC1", 977]
]}

----------
assay: 14-day oral gavage toxicokinetic study in rats; format: in vivo; settings: female, rat, plasma, po, 30 mg/kg, Individual Compound 1 Plasma Concentration, rats, daily oral 30 mg/kg, Day 1, Female, 2 h

{"columns": ["TEST SMILES", "UNIT OF MEASUREMENT", "concentration at 2 h"],
 "data": [
  ["CN1CCN(c2ccc(Nc3ncc4cc5n(c4n3)C3(CCCCC3)CNC5=O)nc2)CC1", "ng/mL", 3440]
]}
